- tested_target: monomeric P301S 2N4R tau, pHrodo-labelled (human, UniProt P10636 1-758, pHrodo Red maleimide label); further: test concentration or dose not given here
- Sequence (P10636 other isoform, or with tags, fused parts or gaps P301S P301S): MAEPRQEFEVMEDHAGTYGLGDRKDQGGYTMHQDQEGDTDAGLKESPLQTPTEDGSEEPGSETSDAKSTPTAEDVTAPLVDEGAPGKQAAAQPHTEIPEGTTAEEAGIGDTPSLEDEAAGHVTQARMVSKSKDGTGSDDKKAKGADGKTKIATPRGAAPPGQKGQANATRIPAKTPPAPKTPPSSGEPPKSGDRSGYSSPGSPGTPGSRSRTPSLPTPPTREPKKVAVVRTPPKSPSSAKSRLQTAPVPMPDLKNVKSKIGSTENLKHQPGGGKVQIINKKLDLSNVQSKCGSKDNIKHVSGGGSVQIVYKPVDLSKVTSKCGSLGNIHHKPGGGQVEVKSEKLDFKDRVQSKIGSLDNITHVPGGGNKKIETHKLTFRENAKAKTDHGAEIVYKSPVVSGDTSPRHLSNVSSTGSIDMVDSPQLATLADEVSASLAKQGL
- assay_method_text: cell-based or functional assay
Attribute: inhibition of monomeric tau uptake into human iPSC-derived neurons
value_type: inhibition of monomeric tau uptake into human iPSC-derived neurons (%)

1) #44 VH3VK4 humanised hIgG1 (antibody, V domains shown, also called VH3Vκ4; Clone VH3VK4 (B)) VH: QVQLQESGPGLVKPSETLSLTCTVSGIDLSSYAMAWVRQAPGKGLEWIGCIDRRGGTFYASWVKGRFTISKTSTTVDLQMTSLTAEDTATYFCARDSGAFDPWGQGTLVTVSS VL: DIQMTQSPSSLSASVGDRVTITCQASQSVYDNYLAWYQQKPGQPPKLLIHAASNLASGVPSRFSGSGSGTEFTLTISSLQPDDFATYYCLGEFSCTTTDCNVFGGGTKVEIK ... 43.1
2) #44_VH4VK4_H04/pVL (antibody, V domains shown, also called VH04/pVL; Clone VH4_H04) VH: QVQLQESGPGLVKPSETLSLTCTVSGIDLSSYAMAWVRQAPGKGLEWIGCIDRRGGTFYASWVKGRFTISKDTSKTTVDLQMTSLTAEDTATYFCARDAGSFHPWGQGTLVTVSS VL: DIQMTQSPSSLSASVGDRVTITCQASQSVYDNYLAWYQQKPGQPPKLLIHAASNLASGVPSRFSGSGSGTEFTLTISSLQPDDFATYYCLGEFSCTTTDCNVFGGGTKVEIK ... 81.8
3) #44_VH4VK4_H01/pVL (antibody, V domains shown, also called Clone VH4_H01; #44_VH4_H01) VH: QVQLQESGPGLVKPSETLSLTCTVSGIDLSSYAMAWVRQAPGKGLEWIGCIDRRGGTFYASWVKGRFTISKDTSKTTVDLQMTSLTAEDTATYFCARDVGSFDVWGQGTLVTVSS VL: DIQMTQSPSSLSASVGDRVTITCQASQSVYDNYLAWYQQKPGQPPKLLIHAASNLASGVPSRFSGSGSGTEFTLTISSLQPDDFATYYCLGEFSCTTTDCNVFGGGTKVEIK ... 89.2
4) #44_VH4VK4_H06/pVL (antibody, V domains shown, also called Clone VH4_H06; #44_VH4_H06) VH: QVQLQESGPGLVKPSETLSLTCTVSGIDLSSYAMAWVRQAPGKGLEWIGVIDAAGHTFYASWVKGRFTISKDTSKTTVDLQMTSLTAEDTATYFCARDSGTFDPWGQGTLVTVSS VL: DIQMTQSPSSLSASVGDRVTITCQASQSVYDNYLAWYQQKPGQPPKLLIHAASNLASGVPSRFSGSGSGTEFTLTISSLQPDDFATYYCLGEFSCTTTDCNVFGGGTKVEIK ... 71
5) #44_VH4VK4_H02/pVL (antibody, V domains shown, also called Clone VH4_H02; #44_VH4_H02) VH: QVQLQESGPGLVKPSETLSLTCTVSGIDLSSYAMAWVRQAPGKGLEWIGCIDRRGGTFYASWVKGRFTISKDTSKTTVDLQMTSLTAEDTATYFCARDRGDFDVWGQGTLVTVSS VL: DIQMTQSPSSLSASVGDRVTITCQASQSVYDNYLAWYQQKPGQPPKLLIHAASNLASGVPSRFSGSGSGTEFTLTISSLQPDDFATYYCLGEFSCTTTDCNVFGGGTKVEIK ... 84.1
